- Tested on: 282377-053-R-J1-PDC complex spheroids, viability;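 further: spheroids exposed to compounds for 7 days before readout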
- test.method.notes: Anticancer human tumor 282377-053-R-J1-PDC patient-derived colon adenocarcinoma cell line growth inhibition [GQUAD]
- applied.conditions: second compound 0.316 µM; first compound 3.16 µM; active compounds read low
Under this convention, y denotes viability, T/C strictly below 60% and n denotes viability, T/C at or above 60%.

Ask | Consider the molecule CCCS(=O)(=O)Nc1ccc(F)c(C(=O)c2c[nH]c3ncc(-c4ccc(Cl)cc4)cc23)c1F + Cc1cnc(CNC(=O)c2c(=O)c3ccc(N4CCCN(C)CC4)nc3n3c2sc2ccccc23)cn1 . Is its viability, T/C strictly less than 60%?
Reply | y

Ask | Please state whether viability, T/C is below 60% for CC(=O)O[C@H]1C(=O)[C@@]2(C)[C@H]([C@H](OC(=O)c3ccccc3)[C@]3(O)C[C@H](OC(=O)[C@H](O)[C@@H](NC(=O)c4ccccc4)c4ccccc4)C(C)=C1C3(C)C)[C@]1(OC(C)=O)CO[C@@H]1C[C@@H]2O + CN(C)c1ccc(Nc2c3ccc(NC(=O)CCN4CCCC4)cc3nc3cc(NC(=O)CCN4CCCC4)ccc23)cc1
Reply | y

Ask | In the record for COc1ccc([C@@H](O)c2cc(-c3ncnc4cc(N5CCOCC5)ccc34)c(F)cc2Cl)nn1 + CN(C)c1ccc(Nc2c3ccc(NC(=O)CCN4CCCC4)cc3nc3cc(NC(=O)CCN4CCCC4)ccc23)cc1 , is viability, T/C less than 60%?
Reply | n

Ask | Record CC1COCCN1c1cc(C2(S(C)(=N)=O)CC2)nc(-c2ccnc3[nH]ccc23)n1 (stereo not drawn) + Cc1[nH]c2ccc(F)cc2c1-c1nc2c3cccnc3c3ncccc3c2[nH]1 : is its viability, T/C strictly below 60%?
Reply | n

Ask | Is the reported viability, T/C for Nc1ccn(C2OC(CO)C(O)C2(F)F)c(=O)n1 (stereo not drawn) + Cc1cnc(CNC(=O)c2c(=O)c3ccc(N4CCCN(C)CC4)nc3n3c2sc2ccccc23)cn1 strictly below 60%?
Reply | y

Ask | Quick check: viability, T/C of COc1cc(C2c3cc4c(cc3C(OC3OC5COC(C)OC5C(O)C3O)C3COC(=O)C23)OCO4)cc(OC)c1O (stereo not drawn) + CN(C)c1ccc(Nc2c3ccc(NC(=O)CCN4CCCC4)cc3nc3cc(NC(=O)CCN4CCCC4)ccc23)cc1 under 60%?
Reply | n

Ask | viability, T/C under 60%? Item: C#Cc1c(F)ccc2cc(O)cc(-c3ncc4c(N5CC6CCC(C5)N6)nc(OCC56CCCN5CC(F)C6)nc4c3F)c12 (stereo not drawn) + CN(C)c1ccc(Nc2c3ccc(NC(=O)CCN4CCCC4)cc3nc3cc(NC(=O)CCN4CCCC4)ccc23)cc1
Reply | n

Ask | Determine if C#Cc1c(F)ccc2cc(O)cc(-c3ncc4c(N5CC6CCC(C5)N6)nc(OCC56CCCN5CC(F)C6)nc4c3F)c12 (stereo not drawn) + Cc1cnc(CNC(=O)c2c(=O)c3ccc(N4CCCN(C)CC4)nc3n3c2sc2ccccc23)cn1 shows viability, T/C strictly lower than 60%.
Reply | n

Ask | I'd appreciate it if you could check whether Cc1cccc(N(C)C(=O)C2C(O)CCN2c2nc(C)cc(C(F)(F)F)c2C#N)c1 (stereo not drawn) + Cc1[nH]c2ccc(F)cc2c1-c1nc2c3cccnc3c3ncccc3c2[nH]1 has viability, T/C smaller than 60%.
Reply | n

Ask | Given the entry C=CC(=O)N1CCN(c2nc(=O)n(-c3c(C)ccnc3C(C)C)c3nc(-c4c(O)cccc4F)c(F)cc23)C(C)C1 (stereo not drawn) + Cc1[nH]c2ccc(F)cc2c1-c1nc2c3cccnc3c3ncccc3c2[nH]1 , would its reported viability, T/C be below 60%?
Reply | n

Ask | Threshold test, viability, T/C < 60%: COc1cc(C2c3cc4c(cc3C(OC3OC5COC(C)OC5C(O)C3O)C3COC(=O)C23)OCO4)cc(OC)c1O (stereo not drawn) + Cc1[nH]c2ccc(F)cc2c1-c1nc2c3cccnc3c3ncccc3c2[nH]1
Reply | n

Ask | A record lists CC(C)(O)C1CCC(Nc2ccc3ncc(-c4cccc(C(F)(F)F)c4)n3n2)CC1 (stereo not drawn) + CN(C)c1ccc(Nc2c3ccc(NC(=O)CCN4CCCC4)cc3nc3cc(NC(=O)CCN4CCCC4)ccc23)cc1 . Is its viability, T/C below 60%?
Reply | y

Ask | Identify whether the molecule CC1COCCN1c1cc(C2(O)CC3CCC(C2)O3)c2cnn(-c3ccn[nH]3)c2n1 (stereo not drawn) + Cc1[nH]c2ccc(F)cc2c1-c1nc2c3cccnc3c3ncccc3c2[nH]1 records viability, T/C below 60%.
Reply | y

Ask | Strictly below 60%: is that where viability, T/C of C=CCn1c(=O)c2cnc(Nc3ccc(N4CCN(C)CC4)cc3)nc2n1-c1cccc(C(C)(C)O)n1 + Cc1[nH]c2ccc(F)cc2c1-c1nc2c3cccnc3c3ncccc3c2[nH]1 sits?
Reply | y

Ask | Would you kindly verify if viability, T/C of COc1ncnc(C2CC2)c1-c1ncc2cnn(Cc3ccc(-c4nc(C(F)(F)F)cn4C(C)C)cc3)c2n1 + Cc1cnc(CNC(=O)c2c(=O)c3ccc(N4CCCN(C)CC4)nc3n3c2sc2ccccc23)cn1 is strictly less than 60%?
Reply | n

Ask | Hi there! Is viability, T/C for CCCS(=O)(=O)Nc1ccc(F)c(C(=O)c2c[nH]c3ncc(-c4ccc(Cl)cc4)cc23)c1F + CN(C)c1ccc(Nc2c3ccc(NC(=O)CCN4CCCC4)cc3nc3cc(NC(=O)CCN4CCCC4)ccc23)cc1 below 60%, do you know?
Reply | y

Ask | Threshold test, viability, T/C < 60%: COc1cccc2c1C(=O)c1c(O)c3c(c(O)c1C2=O)CC(O)(C(=O)CO)CC3OC1CC(N)C(O)C(C)O1 (stereo not drawn) + CN(C)c1ccc(Nc2c3ccc(NC(=O)CCN4CCCC4)cc3nc3cc(NC(=O)CCN4CCCC4)ccc23)cc1
Reply | y
